# targetOrSystem: T1, ZFP SBS#493 (synthetic, UniProt P08047)
# T1 chain: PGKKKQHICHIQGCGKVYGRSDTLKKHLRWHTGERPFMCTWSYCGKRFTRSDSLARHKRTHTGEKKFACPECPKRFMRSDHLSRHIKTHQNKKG
# testDescription: EMSA
# particulars: tags: MBP fusion
propertyMeasured: pKd
FYI, pKd means -log10 of a concentration in mol per litre.

GET /value?item= GGGGTGGCGG (dsDNA) DNA 1: GGGGTGGCGG DNA 2: CCGCCACCCC &field=pKd returns 6.52
